targetOrSystem: human RORγ (Homo sapiens)
Construct: human, NM_005060.3 and from Ser253 to Lys518; expressed in transfected cells; host or cells: CHO cells (transient co-transfection with pG5-Luc reporter)
assay: Luciferase reporter gene assay of inhibitory effect against RORγ transcriptional activity (GAL4-hRORγ plasmid in CHO cells)
Type: cell-based
experimentalParameters: read-out: LUC EC50 (μM) hRORg
reportedMetric: EC50

Use the examples below as a reference point.
                                   compound  reportedmetric  reported
0  Cc1ccc(NC(=O)C(C)C(CCOCc2ccccc2)c2nnc([C@H]3C[C@@H](CC(C)C)C3)n2C2CC2)c(C)c1 (stereo partly shown) [Example F-489]            EC50    > 3 µM
1  Cc1ccc(NC(=O)[C@H]2CCCN(C)[C@@H]2c2nnc(CCCC(C)(C)C)n2C2CC2)c(C)c1            EC50    < 3 µM

Give the reported EC50 for this compound. Cc1ccc(NC(=O)CC(CCCO)c2nnc(CCCC(C)(C)C)n2CC(F)(F)F)c(C)c1 (racemic) < 3 µM

Give the reported EC50 for this compound. CC(=O)N1C[C@H](C(=O)Nc2ccc(C)cc2C)[C@@H](c2nnc([C@H]3C[C@@H](OC(C)(C)C)C3)n2C2CC2)C1 (racemic) < 3 µM

====

Catalogue of EC50 readings, one per entry.
targetOrSystem: mouse RORγ (Mus musculus, UniProt P51450)
Construct: mouse, NM_011281.2 and from Ile251 to Lys516; expressed in transfected cells; host or cells: CHO cells (transient co-transfection with pG5-Luc reporter)
Sequence (P51450 251-516): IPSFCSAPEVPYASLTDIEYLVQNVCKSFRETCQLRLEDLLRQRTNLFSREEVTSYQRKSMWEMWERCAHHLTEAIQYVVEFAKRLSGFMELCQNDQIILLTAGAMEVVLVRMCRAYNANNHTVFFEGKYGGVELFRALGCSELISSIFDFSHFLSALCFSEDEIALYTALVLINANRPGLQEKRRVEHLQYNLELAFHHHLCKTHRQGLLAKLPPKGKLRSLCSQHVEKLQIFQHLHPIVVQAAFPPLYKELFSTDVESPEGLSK
assay: Luciferase reporter gene assay of inhibitory effect against RORγ transcriptional activity (GAL4-mRORγ plasmid in CHO cells)
Assay type: cell-based
experimentalParameters: read-out: LUC EC50 (μM) mRORg

Use the examples below as a reference point.
>>> df
                                   molecule  reportedmetric  reported
0    Cc1cccnc1NC(=O)CCc1nnc(CCC(C)C)n1C1CC1            EC50    > 3 µM
1  CC(C)(C)Cc1cc(-c2noc([C@@H](CCC(=O)O)CC(=O)Nc3ccc(Cl)cc3F)c2C2CC2)no1            EC50    < 3 µM
2  CC(=O)N1CC[C@H](c2nnc(CCCC(C)(C)C)n2C2CC2)[C@@H](C(=O)Nc2ccc(C)cc2C)C1 (racemic)            EC50    < 3 µM
3  CCn1c(CCC(=O)Nc2ccc(Cl)cc2Cl)nnc1C1Cc2ccccc2C1            EC50    > 3 µM
4  Cc1ccc(NC(=O)CC(CCC(N)=O)c2nnc(CCCC(C)C)n2C2CC2)c(C)c1 (racemic)            EC50    > 3 µM
5  Cc1ccc(NC(=O)CCc2nnc(CCC3CCCCC3)n2CC(F)(F)F)c(C)c1            EC50    < 3 µM
6  CCCOc1ccc(-c2nnc(CCC(=O)Nc3ccc(C)cc3C)n2C2CC2)cc1            EC50    < 3 µM
7   CCCCc1nnc(CCC(=O)Nc2cccc(Cl)c2C)n1C1CC1            EC50    > 3 µM

Give the reported EC50 for this molecule. Cc1ccc(NC(=O)[C@H]2CN(S(C)(=O)=O)C[C@@H]2c2nnc(CCCC(C)(C)C)n2C2CC2)c(C)c1 (racemic) < 3 µM

Give the reported EC50 for this molecule. `Cc1ccc(NC(=O)CCc2nnn(CCC3CCCCC3)c2C2CC2)c(C)c1` < 3 µM

====

targetOrSystem: mouse RORγ (Mus musculus, UniProt P51450)
Construct: mouse, NM_011281.2 and from Ile251 to Lys516; expressed in transfected cells; host or cells: CHO cells (transient co-transfection with pG5-Luc reporter)
assay: Luciferase reporter gene assay of inhibitory effect against RORγ transcriptional activity (GAL4-mRORγ plasmid in CHO cells)
Format: cell-based
experimentalParameters: read-out: LUC EC50 (μM) mRORg
reportedMetric: EC50

Use the examples below as a reference point.
>>> print(df.to_string())
                                   compound  reported
0  CCC1(CC)CC(c2nnc(CCC(=O)Nc3ccc(C)cc3C)n2C2CC2)C1    < 3 µM
1  CCn1c(CCC(=O)Nc2cccc3ccccc23)nnc1CCC(C)C    < 3 µM
2  CC(C)CCc1nnc(CCC(=O)NCc2cccc3cn[nH]c23)n1C1CC1    > 3 µM
3  Cc1ccc(NC(=O)[C@H]2CCCN(C)[C@@H]2c2nnc(CCC3CCCCC3)n2C2CC2)c(C)c1    < 3 µM
4  CCn1c(CCC(=O)Nc2cccc3ccccc23)nnc1CCC1CCCCC1    < 3 µM

Give the reported EC50 for this compound. `Cc1cc(Cl)ccc1NC(=O)C[C@H](CCC(=O)O)c1noc(-c2cc(CCC(C)(C)C)on2)c1C1CC1` < 3 µM

Give the reported EC50 for this compound. Cc1ccc(NC(=O)CC(CCC(=O)N(C)C)c2nnc(CCCC(C)C)n2C2CC2)c(C)c1 (racemic) < 3 µM

Give the reported EC50 for this compound. `Cc1c(NC(=O)CCc2nnc(CCC(C)C)n2C2CC2)cccc1C(F)(F)F` < 3 µM

Give the reported EC50 for this compound. `Cc1ccc(NC(=O)CCc2nnc(-c3cc(CC(C)C)on3)n2C2CC2)c(C)c1` < 3 µM

Give the reported EC50 for this compound. CCn1c(CCC2CCCCC2)nnc1[C@H]1C[C@@H]1C(=O)Nc1cccc2ccccc12 (racemic) [Example F-37] < 3 µM

====

Catalogue of EC50 readings, one per entry.
targetOrSystem: human RORγ (Homo sapiens, UniProt P51449)
Construct: human, NM_005060.3 and from Ser253 to Lys518; expressed in transfected cells; host or cells: CHO cells (transient co-transfection with pG5-Luc reporter)
Sequence (P51449 253-518): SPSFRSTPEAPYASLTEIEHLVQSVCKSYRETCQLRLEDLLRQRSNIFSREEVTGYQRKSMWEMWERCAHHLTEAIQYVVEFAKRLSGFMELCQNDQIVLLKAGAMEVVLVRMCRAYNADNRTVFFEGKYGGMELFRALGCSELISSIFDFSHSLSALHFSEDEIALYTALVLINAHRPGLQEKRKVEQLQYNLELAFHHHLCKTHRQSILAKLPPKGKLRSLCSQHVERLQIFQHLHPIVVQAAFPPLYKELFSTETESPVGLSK
assay: Luciferase reporter gene assay of inhibitory effect against RORγ transcriptional activity (GAL4-hRORγ plasmid in CHO cells)
Assay type: cell-based
experimentalParameters: read-out: LUC EC50 (μM) hRORg

Use the examples below as a reference point.
>>> print(df.to_string())
                                   compound  reported
0  CC(=O)N1C[C@H](C(=O)Nc2ccc(C)cc2C)[C@@H](c2nnc([C@H]3C[C@H](c4ccccc4)C3)n2C2CC2)C1 (racemic)    < 3 µM
1  CC(=O)N1C[C@H](C(=O)Nc2ccc(C)cc2C)[C@@H](c2nnc(CCCC(C)(C)C)n2CC(F)(F)F)C1 [Example F-392]    < 3 µM
2  Cc1c(Cl)cccc1NC(=O)CC(O)c1nnc(CCC(C)C)n1C1CC1 (racemic)    > 3 µM
3   Cc1cccnc1CNC(=O)CCc1nnc(CCC(C)C)n1C1CC1    > 3 µM
4  Cc1ccc(NC(=O)C[C@H](CCC(=O)O)c2noc(-c3cc(C(C)(C)C(F)(F)F)on3)c2C2CC2)c(Cl)c1    < 3 µM

Give the reported EC50 for this compound. Cc1ccc(NC(=O)CC(CCN2C(=O)c3ccccc3C2=O)c2nnc(CCCC(C)C)n2C2CC2)c(C)c1 (racemic) < 3 µM

Give the reported EC50 for this compound. CC(=O)N1C[C@H](C(=O)Nc2ccc(C)cc2C)[C@@H](c2nnc(CCC3CCCCC3)n2C2CC2)C1 (racemic) [Example F-191] < 3 µM

====

Catalogue of EC50 readings, one per entry.
targetOrSystem: human RORγ (Homo sapiens, UniProt P51449)
Construct: human, NM_005060.3 and from Ser253 to Lys518; expressed in transfected cells; host or cells: CHO cells (transient co-transfection with pG5-Luc reporter)
assay: Luciferase reporter gene assay of inhibitory effect against RORγ transcriptional activity (GAL4-hRORγ plasmid in CHO cells)
Type: cell-based
experimentalParameters: read-out: LUC EC50 (μM) hRORg

Use the examples below as a reference point.
In [3]: df
Out[3]:
                                   compound                            targetorsystem  reported
0    Cc1ccccc1NC(=O)CCc1nnc(CCC(C)C)n1C1CC1  human RORγ (Homo sapiens, UniProt P51449)    > 3 µM
1  Cc1ccc(NC(=O)C[C@H](CCC(=O)O)c2noc(-c3cc(CC(C)C)no3)c2C2CC2)c(Cl)c1  human RORγ (Homo sapiens, UniProt P51449)    < 3 µM
2  Cc1ccc(NC(=O)CC(c2nnc([C@H]3C[C@@H](CC(C)C)C3)n2C2CC2)C2CN(C(=O)OCc3ccccc3)C2)c(C)c1 (mixture of isomers)  human RORγ (Homo sapiens, UniProt P51449)    < 3 µM
3   Cc1ccccc1CNC(=O)CCc1nnc(CCC(C)C)n1C1CC1  human RORγ (Homo sapiens, UniProt P51449)    > 3 µM
4  CCC(=O)N1C[C@H](C(=O)Nc2ccc(C)cc2C)[C@@H](c2nnc(CCCC(C)(C)C)n2C2CC2)C1 (racemic)  human RORγ (Homo sapiens, UniProt P51449)    < 3 µM

Give the reported EC50 for this compound. `Cc1c(Cl)cccc1NC(=O)CCc1nnc(CCCC(C)(C)C(=O)N(C)C)n1C1CC1` > 3 µM

Give the reported EC50 for this compound. `COc1cc(C)ccc1CNC(=O)CCc1nnc(CCC2(C)CCCCC2)n1C1CC1` < 3 µM

Give the reported EC50 for this compound. Cc1ccc(NC(=O)CC(Cc2nc(=O)o[nH]2)c2nnc([C@H]3C[C@@H](CC(C)C)C3)n2C2CC2)c(C)c1 (mixture of isomers) < 3 µM
